Provide the reported IC50 of each item.
target: CCR1 (Homo sapiens); construct: a monocytic derived cell line that endogenously expresses CCR1; experiment: CCR1 inhibition (THP-1 FLIPR assay / THP-1 whole cell radioligand binding assay; the patent does not say which gave the values); settings: threshold list, less than 100 nm; compounds of Table 1; read-out: inhibitory activity

Quote IC50 reported for Cc1nc2ccccc2nc1N1C[C@H](O)[C@@H](N2CCN(C(=O)c3ccc(Cl)cc3)CC2)C1 (stereo in doubt) please.
< 100 nM

Quote IC50 reported for O[C@H]1CN(c2ncnc3cc(Cl)ccc23)C[C@@H]1N1CCN(Cc2ccc(Cl)cc2)CC1 (stereo in doubt) please.
< 100 nM

Quote IC50 reported for Cc1cc(C(F)(F)F)nc(N2C[C@@H](O)[C@H](N3CCN(Cc4ccc(Cl)cc4)CC3)C2)n1 (stereo in doubt) please.
< 100 nM

Quote IC50 reported for O=C(c1ccc(Cl)cc1)N1CCN([C@@H]2CN(c3nc(Nc4ccc(Cl)cc4)cc(C(F)(F)F)n3)C[C@H]2O)CC1 (stereo in doubt) please.
< 100 nM

Quote IC50 reported for O=C(O)c1ccc2nc(C(F)(F)F)nc(N3C[C@@H](O)[C@H](N4CCN(C(=O)c5ccc(Cl)cc5)CC4)C3)c2c1 (stereo in doubt) please.
< 100 nM

Quote IC50 reported for NC(=O)Nc1ccc2nc(C(F)(F)F)nc(N3C[C@H](O)[C@@H](N4CCN(C(=O)c5ccc(Cl)cc5)CC4)C3)c2c1 (stereo in doubt) please.
< 100 nM

Quote IC50 reported for COc1cc2c(N3C[C@H](O)[C@@H](N4CCN(C(=O)c5ccc(Cl)cc5)CC4)C3)nc(C(F)(F)F)nc2cn1 (racemic) please.
< 100 nM

Quote IC50 reported for O=C(c1ccc(Cl)cc1)N1CCN([C@@H]2CN(c3ncnc4cc(F)c(F)cc34)C[C@H]2O)CC1 (stereo in doubt) please.
< 100 nM

Quote IC50 reported for O=C(c1ccc(Cl)cc1)N1CCN([C@H]2CN(c3nccc(C(F)(F)F)n3)C[C@@H]2O)CC1 please.
< 100 nM

Quote IC50 reported for CCOc1ccc2nc(C(F)(F)F)nc(N3C[C@H](O)[C@@H](N4CCN(C(=O)c5ccc(Cl)cc5)CC4)C3)c2c1 (stereo in doubt) please.
< 100 nM

Quote IC50 reported for O=C(c1ccc(Cl)cc1)N1CCN([C@@H]2CN(c3cc(C(F)(F)F)cc(C(F)(F)F)c3)C[C@H]2O)CC1 (stereo in doubt) please.
< 100 nM

Quote IC50 reported for O=C(c1ccc(Cl)cc1)N1CCN([C@H]2CN(c3nc(C(F)(F)F)nc4cc(F)c(F)cc34)C[C@@H]2O)CC1 (stereo in doubt) please.
< 100 nM

Quote IC50 reported for O[C@@H]1CN(c2ncnc3cc(Cl)ccc23)C[C@H]1N1CCN(Cc2ccc(Cl)cc2)CC1 please.
< 100 nM

Quote IC50 reported for O=C(c1ccc(Cl)cc1)N1CCN([C@H]2CN(c3cc(C(F)(F)F)c4ccccc4n3)C[C@@H]2O)CC1 (stereo in doubt) please.
< 100 nM

Quote IC50 reported for COC(=O)c1ccc2nc(C(F)(F)F)nc(N3C[C@@H](O)[C@H](N4CCN(C(=O)c5ccc(Cl)cc5)CC4)C3)c2c1 (stereo in doubt) please.
< 100 nM

Quote IC50 reported for O[C@@H]1CN(c2nc(C(F)(F)F)cc(C(F)(F)F)n2)C[C@H]1N1CCN(Cc2ccc(Cl)cc2)CC1 please.
< 100 nM

Quote IC50 reported for Cc1cc(C(F)(F)F)nc(N2C[C@@H](O)[C@H](N3CCN(C(=O)c4ccc(Cl)cc4)CC3)C2)n1 (stereo in doubt) please.
< 100 nM

Quote IC50 reported for O=C(c1ccc(Cl)cc1)N1CCN([C@@H]2CN(c3ccnc4cc(Cl)ccc34)C[C@H]2O)CC1 (stereo in doubt) please.
< 100 nM

Quote IC50 reported for CNC(=O)Nc1ccc2nc(C(F)(F)F)nc(N3C[C@H](O)[C@@H](N4CCN(C(=O)c5ccc(Cl)cc5)CC4)C3)c2c1 (stereo in doubt) please.
< 100 nM

Quote IC50 reported for O=C(c1ccc(Cl)cc1)N1CCN([C@H]2CN(c3cc(C(F)(F)F)nc4c(C(F)(F)F)cccc34)C[C@@H]2O)CC1 (stereo in doubt) please.
< 100 nM

Quote IC50 reported for O=C(c1ccc(Cl)cc1)N1CCN([C@@H]2CN(c3nc(-c4ccccc4)nc4ccccc34)C[C@H]2O)CC1 please.
< 100 nM

Quote IC50 reported for COC(=O)Nc1ccc2nc(C(F)(F)F)nc(N3C[C@H](O)[C@@H](N4CCN(C(=O)c5ccc(Cl)cc5)CC4)C3)c2c1 (stereo in doubt) please.
< 100 nM

Quote IC50 reported for O[C@H]1CN(c2ncnc3cc(C(F)(F)F)ccc23)C[C@@H]1N1CCN(Cc2ccc(Cl)cc2)CC1 (stereo in doubt) please.
< 100 nM

Quote IC50 reported for Cc1cc(N2C[C@@H](O)[C@H](N3CCN(C(=O)c4ccc(Cl)cc4)CC3)C2)nc(C(F)(F)F)n1 (stereo in doubt) please.
< 100 nM

###

Molecular target: CCR1 (Homo sapiens, UniProt P32246)
Construct: a monocytic derived cell line that endogenously expresses CCR1; host or cells: THP-1 cells
Sequence (P32246 1-355): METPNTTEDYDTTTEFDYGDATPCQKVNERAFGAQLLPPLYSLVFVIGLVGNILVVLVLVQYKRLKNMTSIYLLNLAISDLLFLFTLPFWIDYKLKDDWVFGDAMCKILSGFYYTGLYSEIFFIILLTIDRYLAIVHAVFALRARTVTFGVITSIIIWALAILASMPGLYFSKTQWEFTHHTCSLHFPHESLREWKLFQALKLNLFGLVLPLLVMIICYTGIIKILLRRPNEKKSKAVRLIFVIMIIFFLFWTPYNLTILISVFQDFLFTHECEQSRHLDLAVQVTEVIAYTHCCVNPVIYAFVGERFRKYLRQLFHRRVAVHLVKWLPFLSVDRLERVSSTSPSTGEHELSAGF
Test: CCR1 inhibition (THP-1 FLIPR assay / THP-1 whole cell radioligand binding assay; the patent does not say which gave the values)
Type: cell-based
Details: threshold list, less than 100 nm; compounds of Table 1; read-out: inhibitory activity
Provide the reported IC50 of each item.

Quote IC50 reported for Cc1ccc2nc(C(F)(F)F)nc(N3C[C@H](O)[C@@H](N4CCN(C(=O)c5ccc(Cl)cc5)CC4)C3)c2c1 (stereo in doubt) please.
< 100 nM

Quote IC50 reported for CC(C)c1cc(C(F)(F)F)nc(N2C[C@@H](O)[C@H](N3CCN(C(=O)c4ccc(Cl)cc4)CC3)C2)n1 (stereo in doubt) please.
< 100 nM

Quote IC50 reported for O=C(c1ccc(Cl)cc1)N1CCN([C@@H]2CN(c3ncnc4cc(Cl)c(F)cc34)C[C@H]2O)CC1 (stereo in doubt) please.
< 100 nM
